# measured-on: GDP-loaded KRAS (1-169) G12C, C51S, C80L, C118S (Homo sapiens, UniProt P01116, C118S/C51S/C80L/G12C)
# Construct: GDP-loaded KRAS (1-169) G12C, C51S, C80L, C118S
# protocol-text: Mass Spectrometry Reactivity Assay (MSRA): covalent adduct of compound and KRAS G12C, Percent Modification
# Assay type: binding
# condition-details: 10 μM compound, 0.25 hr
observation-type: MSRA (% modification) 10 μM 0.25 hr (%)
Reply with just the number (in %).

The examples below pair each entry with its known result.
What value of MSRA (% modification) 10 μM 0.25 hr has been reported for the following molecule? C=CC(=O)N1CCN(c2ncnc3c(Oc4c(C)ccc5[nH]ncc45)cccc23)C[C@H]1C [Example 03C] 3

What value of MSRA (% modification) 10 μM 0.25 hr has been reported for the following molecule? C=CC(=O)N1CCN(c2nc(OC[C@@]3(F)CCN(C)C3)nc3c(Oc4c(Cl)c(F)cc5[nH]ncc45)nccc23)CC1 [Example 15H] 54

What value of MSRA (% modification) 10 μM 0.25 hr has been reported for the following molecule? C=CC(=O)N1CCN(c2nc(OC[C@]3(F)CCN(C)C3)nc3c(Oc4c(Cl)c(F)cc5[nH]ncc45)nccc23)CC1 [Example 14H] 81

What value of MSRA (% modification) 10 μM 0.25 hr has been reported for the following molecule? C=CC(=O)N1CCN(c2nc(OC[C@@H]3CCCN3C)nc3c(Oc4c(C)c(Cl)cc5[nH]ncc45)nccc23)CC1 [Example 13B] 74

New cases:
What value of MSRA (% modification) 10 μM 0.25 hr has been reported for the following molecule? C=CC(=O)N1CCN(c2ncnc3c(Oc4c(F)c(Cl)cc5[nH]ncc45)nc(Cl)cc23)CC1 [Example 34A] 47

What value of MSRA (% modification) 10 μM 0.25 hr has been reported for the following molecule? C=CC(=O)N1CCN(c2nc(OCc3nncn3C)nc3c(Oc4c(C)ccc5[nH]ncc45)cccc23)CC1 [Example 07F] 74

What value of MSRA (% modification) 10 μM 0.25 hr has been reported for the following molecule? C=CC(=O)N1CCN(c2ncnc3c(Oc4c(Cl)c(F)cc5[nH]ncc45)nc(Cl)cc23)C[C@@H]1C [Example 36A] 31

What value of MSRA (% modification) 10 μM 0.25 hr has been reported for the following molecule? C=CC(=O)N1CCN(c2nc(OC[C@@H]3CCCN3C)nc3c(Oc4c(C)ccc5[nH]ncc45)cccc23)CC1 [Example 07E] 79

* * *

# measured-on: KRAS G12C (Homo sapiens, UniProt P01116, G12C)
# protocol-text: Cell Activity Assay: accumulation of GDP-bound KRAS G12C in MIAPaCa-2 cells (Raf-1 RBD capture, MSD readout)
# Format: cell-based
# Parameters: endogenous in cells; host or cells: MIAPaCa-2
# condition-details: 6 hours, assay limit is 30.00
Binning of IC50 into classes: bucket A (below 0.2 µM), bucket B (0.2 µM to below 3 µM), bucket C (3 µM or more)

Recorded results for 2 compounds are shown here.
Hey, which category is C=CC(=O)N1CCN(c2nc(OCC3CC(=O)N(C)C3)nc3c(Oc4c(Cl)c(F)cc5[nH]ncc45)nccc23)CC1 (centres unmarked) [Example 03J] in, do you know? bucket B

Hey, which category is C=CC(=O)N1CCN(c2nc(OC[C@H]3CCC(=O)N3)nc3c(Oc4c(C)ccc5[nH]ncc45)cccc23)CC1 [Example 10F] in, do you know? bucket C

New cases:
Hey, which category is C=CC(=O)N1CCN(c2nc(NCc3nncn3C)nc3c(Oc4c(C)ccc5[nH]ncc45)cccc23)CC1 [Example 02F] in, do you know? bucket C

Hey, which category is C=CC(=O)N1CCN(c2nc(OC[C@@H]3CCCN3C)nc3c(Oc4c(Cl)c(F)cc5[nH]ncc45)nccc23)CC1 [Example 01H] in, do you know? bucket A

Hey, which category is C=CC(=O)N1CCN(c2ncnc3c(Oc4c(Cl)c(Cl)cc5[nH]ncc45)nc(Cl)cc23)CC1 [Example 30A] in, do you know? bucket B

Hey, which category is C=CC(=O)N1CCN(c2ncnc3c(Oc4c(C)cccc4Cl)nccc23)CC1 in, do you know? bucket C

Hey, which category is C=CC(=O)N1CCN(c2nc(OC[C@@H]3CCCN3C)nc3c(Oc4c(C)ccc5[nH]ncc45)nc(Cl)cc23)CC1 [Example 03G] in, do you know? bucket A

Hey, which category is C=CC(=O)N1CCN(c2nc(N3CC(N(C)C)C3)nc3c(Oc4c(Cl)c(C)cc5[nH]ncc45)cccc23)CC1 [Example 14E] in, do you know? bucket B

Origin of the recorded values: patent US10662204B2
